Sourced from patent US20140112930A1

Molecular target: T1, wild-type human Ang-2 (hAng-2-WT) (human, UniProt O15123 19-496)
T1 construct: called full-length wild-type; also called Full-length wild-type human Ang-2
T1 sequence: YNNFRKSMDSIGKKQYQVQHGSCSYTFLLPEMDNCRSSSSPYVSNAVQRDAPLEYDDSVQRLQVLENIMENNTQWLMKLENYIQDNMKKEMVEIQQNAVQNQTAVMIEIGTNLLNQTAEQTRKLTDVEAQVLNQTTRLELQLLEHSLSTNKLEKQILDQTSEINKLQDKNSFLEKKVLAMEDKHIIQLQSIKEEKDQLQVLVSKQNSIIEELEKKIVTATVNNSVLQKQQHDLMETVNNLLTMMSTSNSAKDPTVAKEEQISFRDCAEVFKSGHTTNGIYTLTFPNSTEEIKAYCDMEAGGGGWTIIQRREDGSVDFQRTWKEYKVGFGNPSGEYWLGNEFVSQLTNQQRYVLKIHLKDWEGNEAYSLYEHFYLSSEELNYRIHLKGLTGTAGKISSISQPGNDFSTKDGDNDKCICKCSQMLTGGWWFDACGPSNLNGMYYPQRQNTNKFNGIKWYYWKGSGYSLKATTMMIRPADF
Assay: SPR, captured Ab
Overview of reported Kd across a group of binders:
Kindly provide the numeric value in nM only, without the unit symbol.

In the examples that follow, each entry is paired with its recorded Kd.
binder | measured_endpoint | numeric_result
H1H749N (antibody, V domains shown) VH: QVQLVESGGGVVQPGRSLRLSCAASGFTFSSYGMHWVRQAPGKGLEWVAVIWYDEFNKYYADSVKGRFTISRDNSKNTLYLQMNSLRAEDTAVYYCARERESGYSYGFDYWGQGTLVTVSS VL: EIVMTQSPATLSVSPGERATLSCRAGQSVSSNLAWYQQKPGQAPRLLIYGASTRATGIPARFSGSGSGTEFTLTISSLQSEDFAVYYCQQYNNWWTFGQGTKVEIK | Kd | 0.0125
H1H704P (antibody, V domains shown) VH: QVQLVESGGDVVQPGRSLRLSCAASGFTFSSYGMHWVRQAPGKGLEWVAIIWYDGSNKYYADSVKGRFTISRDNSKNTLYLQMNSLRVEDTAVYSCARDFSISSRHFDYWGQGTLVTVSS VL: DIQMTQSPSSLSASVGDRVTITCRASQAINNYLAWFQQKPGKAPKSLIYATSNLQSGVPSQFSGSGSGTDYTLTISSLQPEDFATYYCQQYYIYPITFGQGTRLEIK | Kd | 0.0362

Please find the next binder below.
Query: Please report the recorded Kd for H1H696P (antibody, V domains shown) VH: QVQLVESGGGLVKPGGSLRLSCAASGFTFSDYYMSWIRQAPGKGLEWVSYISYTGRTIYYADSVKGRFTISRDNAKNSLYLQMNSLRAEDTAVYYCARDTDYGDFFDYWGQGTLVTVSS VL: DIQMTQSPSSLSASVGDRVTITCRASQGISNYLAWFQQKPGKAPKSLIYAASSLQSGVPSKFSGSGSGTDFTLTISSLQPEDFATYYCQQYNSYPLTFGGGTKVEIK .
Reply: 0.0403
